# Tested on: CtBP / adenovirus E1A interaction (AlphaScreen)
# procedure_summary: qHTS Assay for Inhibitors of the CtBP/E1A Interaction; also: % is scaled to controls: 0 for no effect and ±100 for the full control effect
# condition: AlphaScreen GST-E1A/His-CtBP binding, 1536-well; stronger effect = lower value
In all, about 340,000 compounds went through this assay and about 1,700 (0.5%) were called active. Roughly 2% stayed inconclusive and do not appear here. For the sample, actives were picked, then their nearest neighbours and some compounds at random.
measurement_type: activity change

Example entries and their recorded answers appear below.
compound	experimental_result
CCOC(=O)c1cc(-c2sc(NC(=O)c3ccccc3)nc2C)n(Cc2ccccc2)n1	0.44% (inactive)
O=C1c2ccccc2C(=O)c2c1cccc2N1CCN(CCO)CC1	-25.7% (inactive)
Cc1nc2c(OCc3ccc(Cl)cc3)cccn2c1N(C)Cc1cccs1	-7.51% (inactive)
Cc1cc(C(=O)N/N=C/c2ccccn2)c2ccccc2n1	-14.7% (inactive)
COc1ccc2cc1Oc1ccc(cc1)C[C@H]1c3cc(c(OC)cc3CCN1C)Oc1c(O)c(OC)cc3c1[C@H](C2)N(C)CC3	-4.43% (inactive)

Task: Please report the recorded activity change for O=C(COC(=O)COc1cc(Cl)c(Cl)cc1Cl)NC1CC1 .
Result: -0.684% (inactive)

Task: Cc1ccsc1C(=O)N/N=C/c1ccc([N+](=O)[O-])cc1 ?
Result: -4.19% (inactive)

Task: Can you handle N#CCCN(C(=S)Nc1ccc(Cl)c(Cl)c1)C1CCCCC1 next?
Result: 0% (inactive)

Task: Same again, this time with COc1ccc2ccccc2c1/C=N/NC(=O)c1cc(C)[nH]n1
Result: -8.94% (inactive)

Task: Try this compound next: COc1ccc(/C=N/NC(=O)c2ccncc2)cc1CN1CCCc2ccccc21
Result: 13.2% (inactive)

Task: Also Cc1ccc(S(=O)(=O)n2oc(=O)c(C3CCCCC3)c2N)cc1 , if possible.
Result: -69.5% (active)

Task: Please give the result for CCOc1ccc(C(CC(=O)O)NC(=O)Cc2ccccc2)cc1OC (centres undefined) too.
Result: -13.3% (inactive)

Task: Quick one: NC(=S)NN=Cc1ccc(OC(=O)COc2cc(Cl)c(Cl)cc2Cl)cn1
Result: -89.3% (active)

Task: And the next one, COc1ccc(/C=N/N(C)C2=NS(=O)(=O)c3ccccc32)cc1OC ?
Result: -89.3% (active)

Task: Consider next the compound CC(=O)NC(c1cccc(F)c1)c1nc(-c2cccc(F)c2)cs1 (centres undefined) in the same way.
Result: 6.59% (inactive)

Task: What about this compound? O=C1c2ccccc2C(=O)N1CCCc1nc(-c2ccccc2)no1
Result: 5.59% (inactive)

Task: Next compound: CC1(C(=O)NCc2ccc3c(c2)OCO3)CCN1C(=O)Cc1cccc2ccccc12 (centres undefined)
Result: -3.05% (inactive)

Task: Field entry: Cc1ccc(S(=O)(=O)NC2CCCCCC2)cc1
Result: 10.7% (inactive)

Task: Consider next the compound O=C1c2cccc3cccc(c23)C(=O)N1CCCCCc1n[nH]c(=S)o1 in the same way.
Result: -82.2% (active)

---

# Tested on: CtBP / adenovirus E1A interaction (AlphaScreen)
# procedure_summary: qHTS Assay for Inhibitors of the CtBP/E1A Interaction; also: % is scaled to controls: 0 for no effect and ±100 for the full control effect
# condition: AlphaScreen GST-E1A/His-CtBP binding, 1536-well; stronger effect = lower value
# Excerpt: Carboxyl-terminal binding protein (CtBP) is a co-repressor for many transcription factors. […] Our studies have shown that CtBP is overexpressed in multiple human cancers, including lung, breast, and head and neck cancers. In particular, it is over-expressed in 50% of primary lung cancer and 90% of metastatic lesions. CtBP suppresses epithelial-specific genes as well as genes critical for apoptosis, providing the underlying molecular mechanism for its role in tumorigenesis. […]
Among all 340,000 compounds or so, about 1,700 (0.5%) were called active. Another 2% or so got no clear call; they are omitted. Shown is part of a subset that was picked to be rich in actives.
Listed below: activity change values for each entry.
Answer with a number only, understood to be in %.

Completed entries (count: 5):
smiles_entry	activity change, %
O=S(=O)(NCCOc1cccc2cccnc12)c1ccc(F)cc1	6.61
CCCCNC(=O)CSc1nc2n[nH]c(C)c2c(=N)n1-c1cccc(Cl)c1C	-0.913
Cc1cc(Cl)ccc1-c1nc(NCCN(C)C)nc2ccsc12	-3.67
O=C(Nc1ccccc1)Oc1cccc2cccnc12	-90.3
COc1cccc(-n2c(SCC(=O)NC3CCCCC3)nc3n[nH]c(C)c3c2=N)c1	-66.5

Note: attention shifts to another entry.
Task: Consider the compound Cc1nn(Cc2ccc(Cl)cc2)c(Cl)c1/C=N/NC(=O)c1cccnc1 and give its measured activity change.
Result: -0.89

# credit: PubChem BioAssay AID651724
